- System: four human cancer cell lines A549, CNE2, HepG2, MCF-7
- test summary: in vitro cytotoxicity, MTT, panel of four cancer cell lines
- Assay type: cell-based
- run conditions: Homo sapiens; four cancer cell lines; read-out: IC50 values against cancer cell lines (range over the panel)

molecule	IC50
Cc1cc(O)c2c3c(ccc2c1)C(=O)c1c(ccc(C2CC4OC5CC(=O)C(C)OC5OC4C(C)O2)c1O)C3=O (stereo not shown) [Compound 2, marangucycline B]	240 to 560 nM

* * *

- System: human breast adenocarcinoma cell line MCF-7
- test summary: in vitro cytotoxicity, MTT
- Type: cell-based
- run conditions: MCF7, read-out: in vitro cytotoxicity IC50, MCF-7
attribute measured: IC50

>>> df
                                   compound                             tested_target  attribute_measured  obs_value
0  CCC1CCCCCCCCC2=N/C(=C\c3[nH]c(-c4ccc[nH]4)cc3OC)C1=C2 (stereo not shown)  human breast adenocarcinoma cell line MCF-7                IC50    > 50 µM
